tested on: PRKCQ; settings: concentration: 1 μM, replicates: in singlicate; n = 1;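 further: KINOMEscan kinase panel screen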
// %Inh lookup, one value per entry
Entry rule: numbers only, all in %.

Query: Please report %Inh for the following compound: `CSc1cccc2c(-c3ccncn3)c(-c3ccc(F)cc3)nn12`
Response: 19

Query: Please report %Inh for the following compound: O=C(NC1CCN(c2ccnc(Nc3ccc(F)cc3)n2)C1)c1cc2ccccc2s1 (centres unmarked)
Response: 16

Query: Please report %Inh for the following compound: `Cl.c1ccc(-c2ccc3c(Nc4ccc5[nH]ncc5c4)ccnc3c2)nc1`
Response: 0

Query: Please report %Inh for the following compound: COc1ccc(Nc2nccc(N3CCC(NC(=O)Nc4cccc(OC)c4)C3)n2)cc1 (centres unmarked)
Response: 0

Query: Please report %Inh for the following compound: NCCCC(NC(=O)c1cc(Br)c(-c2ccnc3[nH]ccc23)s1)c1ccccc1.O=C(O)C(F)(F)F.O=C(O)C(F)(F)F (centres unmarked)
Response: 75

More entries:
Query: Please report %Inh for the following compound: `O=c1[nH]cc(-c2ccc(N3CCOCC3)cc2)c2sc(-c3cn[nH]c3)cc12`
Response: 21

Query: Please report %Inh for the following compound: `C[C@@H]1CC[C@@H](C(=O)Nc2ccccc2)CN1c1cc(-c2ccc3c(N)n[nH]c3c2)nc(N)n1`
Response: 0

Query: Please report %Inh for the following compound: `CN1CCN(CCCNc2nccc(-c3c(-c4ccc(F)cc4)nn4cc(C(F)(F)F)ccc34)n2)CC1`
Response: 7
